# Test system: Mitochondrial carnitine/acylcarnitine carrier protein (Rattus norvegicus)
# Experimental details: Affinity of compound towards the carnitine/acylcarnitine translocase was determined by monitoring the efflux of [14C]L-carnitine from isolated rat heart mitochondria at 3 mM conc.
Observable: Total DPM

[[record]]
compound = "C[N+]1(C)CCCC(C(=O)O)C1 (stereo unspecified)"
observable = "Total DPM"
reported_measurement = 10900

[[record]]
compound = "C[N+](C)(C)[C@@H]1CCCC[C@H]1C(=O)O"
observable = "Total DPM"
reported_measurement = 10900

[[record]]
compound = "C[N+](C)(C)CC(O)CC(=O)[O-] (stereo unspecified)"
observable = "Total DPM"
reported_measurement = 12200

[[record]]
compound = "C[N+]1(C)CCC[C@H]1C(=O)[O-]"
observable = "Total DPM"
reported_measurement = 12200

[[record]]
compound = "C[N+]1(C)C[C@H](O)C[C@H]1C(=O)O"
observable = "Total DPM"
reported_measurement = 12200

[[record]]
compound = "C[N+]1(C)CCCCC1C(=O)O (stereo unspecified)"
observable = "Total DPM"
reported_measurement = 10900


###

# Test system: Mitochondrial carnitine/acylcarnitine carrier protein (Rattus norvegicus) (UniProt P97521)
# Experimental details: Affinity of compound towards the carnitine/acylcarnitine translocase was determined by monitoring the efflux of [14C]L-carnitine from isolated rat heart mitochondria at 3 mM conc.
Observable: Trans (%)

[[record]]
compound = "C[N+]1(C)CCC[C@H]1C(=O)[O-]"
result_unit = "%"
reported_measurement = 3.17

[[record]]
compound = "C[N+]1(C)CCCC(C(=O)O)C1 (stereo unspecified)"
result_unit = "%"
reported_measurement = 0

[[record]]
compound = "C[N+]1(C)C[C@H](O)C[C@H]1C(=O)O"
result_unit = "%"
reported_measurement = 3.16

[[record]]
compound = "C[N+](C)(C)[C@@H]1CCCC[C@H]1C(=O)O"
result_unit = "%"
reported_measurement = 0


I = C[N+](C)(C)CC(O)CC(=O)[O-] (stereo unspecified)
II = C[N+]1(C)CCCCC1C(=O)O (stereo unspecified)
# returns the entry with the larger Trans; inputs I and II Returns: label corresponding to the selected item.
I

###

# Test system: Mitochondrial carnitine/acylcarnitine carrier protein (Rattus norvegicus)
# Experimental details: Affinity of compound towards the carnitine/acylcarnitine translocase was determined by monitoring the efflux of [14C]L-carnitine from isolated rat heart mitochondria at 3 mM conc.
Observable: Experimental DPM

[[record]]
molecule = "C[N+]1(C)CCCCC1C(=O)O (stereo not given)"
test_system = "Mitochondrial carnitine/acylcarnitine carrier protein (Rattus norvegicus)"
observable = "Experimental DPM"
reported_measurement = 3850

[[record]]
molecule = "C[N+]1(C)CCCC(C(=O)O)C1 (stereo not given)"
test_system = "Mitochondrial carnitine/acylcarnitine carrier protein (Rattus norvegicus)"
observable = "Experimental DPM"
reported_measurement = 4030

[[record]]
molecule = "C[N+]1(C)C[C@H](O)C[C@H]1C(=O)O"
test_system = "Mitochondrial carnitine/acylcarnitine carrier protein (Rattus norvegicus)"
observable = "Experimental DPM"
reported_measurement = 4930


a = C[N+](C)(C)CC(O)CC(=O)[O-] (stereo not given)
b = C[N+](C)(C)[C@@H]1CCCC[C@H]1C(=O)O
Identify the item whose Experimental DPM is the smaller number: a or b Response format: the label of the selected entry.
b

###

# Test system: Mitochondrial carnitine/acylcarnitine carrier protein (Rattus norvegicus) (UniProt P97521)
# Sequence (whole entry): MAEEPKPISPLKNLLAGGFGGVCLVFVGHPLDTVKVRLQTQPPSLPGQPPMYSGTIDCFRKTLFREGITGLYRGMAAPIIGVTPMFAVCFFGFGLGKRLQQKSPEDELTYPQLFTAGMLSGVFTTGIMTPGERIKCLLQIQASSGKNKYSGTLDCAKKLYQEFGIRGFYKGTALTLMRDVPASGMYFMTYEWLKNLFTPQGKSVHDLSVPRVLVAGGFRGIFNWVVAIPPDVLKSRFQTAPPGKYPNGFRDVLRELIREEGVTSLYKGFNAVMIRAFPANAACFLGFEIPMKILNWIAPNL
# Experimental details: Affinity of compound towards the carnitine/acylcarnitine translocase was determined by monitoring the efflux of [14C]L-carnitine from isolated rat heart mitochondria
Observable: Experimental DPM

Would you please look over these solved cases?
[[record]]
compound = "O=C(O)C1CCCCN1 (configuration not stated)"
reported_measurement = 4280

[[record]]
compound = "NCC(O)CC(=O)O (configuration not stated)"
reported_measurement = 4220

[[record]]
compound = "O=C(O)[C@@H]1C[C@@H](O)CN1"
reported_measurement = 5350

[[record]]
compound = "O=C(O)[C@@H]1CCCN1"
reported_measurement = 5050

[[record]]
compound = "O=C(O)C1CCCNC1 (configuration not stated)"
reported_measurement = 4130


I = C[N+]1(C)CCC[C@H]1C(=O)[O-]
II = CCCCCCCCCCCCCCCC(=O)OC(CN)CC(=O)O (configuration not stated)
Kindly identify the item with the lower Experimental DPM figure among these two: I and II Give the label under which the chosen entry appears.
II

The measured values listed here are drawn from ChEMBL document CHEMBL1123190.
